- tested.target: Bile acid receptor (Homo sapiens, UniProt Q96RI1)
- procedure.text: Agonist activity at human FXR transfected in african green monkey CV1 cells by luciferase reporter gene transient transfection assay
- Type: functional, cell-based, CV-1
pEC50: −log10 of the molar value.
parameter.measured: pEC50

Consider the worked cases shown below.
CC(C)c1onc(CCCc2ccccc2)c1COc1ccc(/C=C/c2cccc(C(=O)O)c2)c(Cl)c1	5.92
CC(C)c1onc(CSc2c(Cl)cccc2Cl)c1COc1ccc(/C=C/c2cccc(C(=O)O)c2)c(Cl)c1	7.00

[1] CC(C)c1onc(C[S+]([O-])c2c(Cl)cccc2Cl)c1COc1ccc(/C=C/c2cccc(C(=O)O)c2)c(Cl)c1 (configuration not stated)
[2] O=C(O)c1cccc(/C=C/c2ccc(OCc3c(-c4c(Cl)cccc4Cl)noc3C3CCCC3)cc2Cl)c1
Ask: // compare: 1 vs 2 , metric pEC50, want the smaller Write the label of whichever entry you select.
Reply: 2

[1] CC(C)c1onc(COc2ccc3ccccc3c2)c1COc1ccc(/C=C/c2cccc(C(=O)O)c2)c(Cl)c1
[2] CC[C@H](C)c1onc(-c2c(Cl)cccc2Cl)c1COc1ccc(/C=C/c2cccc(C(=O)O)c2)c(Cl)c1
[3] O=C(O)c1cccc(/C=C/c2ccc(OCc3c(-c4c(Cl)cccc4Cl)noc3C3CCC3)cc2Cl)c1
[4] CC(C)c1onc(COc2cc(Cl)ccc2Cl)c1COc1ccc(/C=C/c2cccc(C(=O)O)c2)c(Cl)c1
Ask: Sort low-to-high on pEC50, please. Order the labels as requested and give them as your answer.
Reply: 1, 4, 2, 3

---

- procedure.text: Terminal half life in iv dosed rat
- Assay type: ADME, organism-based
- measurement.context: in vivo, read-out: beta t1/2
parameter.measured: half-life (h)

Known half-life results, listed for orientation:
CC(C)c1onc(CNc2c(Cl)cccc2Cl)c1COc1ccc(/C=C/c2cccc(C(=O)O)c2)c(Cl)c1	2.33
CC(C)c1onc(COc2c(Cl)cc(F)cc2Cl)c1COc1ccc(/C=C/c2cccc(C(=O)O)c2)c(Cl)c1	2.33

[1] CC(C)c1onc(COc2c(Cl)cccc2Cl)c1COc1ccc(/C=C/c2cccc(C(=O)O)c2)c(Cl)c1
[2] CC(C)c1onc(-c2c(Cl)cncc2Cl)c1COc1ccc(/C=C/c2cccc(C(=O)O)c2)c(Cl)c1
Ask: Larger number for half-life: 1 , or 2 ? Write down the label attached to your selection.
Reply: 1
(1: 2.17 h, 2: 0.867 h)

---

- procedure.text: Total clearance in iv dosed rat
- Type: ADME, organism-based
- measurement.context: in vivo
parameter.measured: clearance (mL/min/kg)

Use the examples below as a reference point.
CC(C)c1onc(CNc2c(Cl)cccc2Cl)c1COc1ccc(/C=C/c2cccc(C(=O)O)c2)c(Cl)c1	16
CC(C)c1onc(COc2c(Cl)cc(F)cc2Cl)c1COc1ccc(/C=C/c2cccc(C(=O)O)c2)c(Cl)c1	15

[1] CC(C)c1onc(-c2c(Cl)cncc2Cl)c1COc1ccc(/C=C/c2cccc(C(=O)O)c2)c(Cl)c1
[2] CC(C)c1onc(COc2c(Cl)cccc2Cl)c1COc1ccc(/C=C/c2cccc(C(=O)O)c2)c(Cl)c1
Ask: Field: entry with larger clearance (options 1 / 2 ). Reply briefly: the label of your chosen item.
Reply: 1

---

- tested.target: Bile acid receptor (Homo sapiens) (UniProt Q96RI1)
- Sequence (whole entry): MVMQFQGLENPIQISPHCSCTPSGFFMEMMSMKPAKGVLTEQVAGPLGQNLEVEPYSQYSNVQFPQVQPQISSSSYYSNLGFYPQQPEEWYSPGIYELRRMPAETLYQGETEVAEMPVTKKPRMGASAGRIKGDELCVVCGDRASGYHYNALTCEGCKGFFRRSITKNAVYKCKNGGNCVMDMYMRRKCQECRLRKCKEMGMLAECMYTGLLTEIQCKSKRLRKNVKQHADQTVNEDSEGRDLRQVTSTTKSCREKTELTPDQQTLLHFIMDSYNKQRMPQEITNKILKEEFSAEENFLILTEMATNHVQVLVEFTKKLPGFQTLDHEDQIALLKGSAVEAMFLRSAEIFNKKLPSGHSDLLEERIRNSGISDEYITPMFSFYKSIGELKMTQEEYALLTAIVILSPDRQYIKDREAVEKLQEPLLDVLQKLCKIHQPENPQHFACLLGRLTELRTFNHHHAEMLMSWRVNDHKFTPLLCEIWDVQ
- procedure.text: Agonist activity at human FXR assessed as SRC1 peptide interaction with receptor ligand binding domain by FRET assay relative to GW-4064
parameter.measured: %max (%)

CC(C)c1onc(C[S+]([O-])c2c(Cl)cccc2Cl)c1COc1ccc(/C=C/c2cccc(C(=O)O)c2)c(Cl)c1 (configuration not stated)	110
CC(C)c1onc(CS(=O)(=O)c2c(Cl)cccc2Cl)c1COc1ccc(/C=C/c2cccc(C(=O)O)c2)c(Cl)c1	100

[I] CC(C)c1onc(Cc2ccccc2)c1COc1ccc(/C=C/c2cccc(C(=O)O)c2)c(Cl)c1
[II] CC(C)c1onc(-c2c(Cl)cccc2Cl)c1COc1ccc(/C=C/c2cccc(C(=O)O)c2)c(Cl)c1
[III] CC(C)c1onc(CCCc2ccccc2)c1COc1ccc(/C=C/c2cccc(C(=O)O)c2)c(Cl)c1
Ask: Write the entries in order, lowest recorded %max first. Answer by naming the labels in the order asked.
Reply: III, I, II
(III: 44%, I: 67%, II: 100%)

---

- tested.target: PXR (Nuclear receptor subfamily 1 group I member 2) (Homo sapiens, UniProt O75469)
- Sequence (O75469 whole entry, the tested form may be a part): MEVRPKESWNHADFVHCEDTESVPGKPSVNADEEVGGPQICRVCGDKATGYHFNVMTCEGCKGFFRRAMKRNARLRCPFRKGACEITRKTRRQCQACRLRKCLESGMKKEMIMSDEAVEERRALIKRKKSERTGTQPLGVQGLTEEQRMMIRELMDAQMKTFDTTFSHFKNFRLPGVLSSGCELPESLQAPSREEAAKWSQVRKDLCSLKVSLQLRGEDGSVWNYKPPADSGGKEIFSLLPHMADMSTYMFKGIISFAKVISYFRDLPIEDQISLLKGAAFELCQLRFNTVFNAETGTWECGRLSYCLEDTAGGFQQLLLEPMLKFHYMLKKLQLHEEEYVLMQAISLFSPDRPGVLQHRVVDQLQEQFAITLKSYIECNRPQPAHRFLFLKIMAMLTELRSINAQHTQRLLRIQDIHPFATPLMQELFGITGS
- procedure.text: Activity at PXR assessed as coactivator peptide interaction with receptor ligand binding domain by scintillation proximity assay
parameter.measured: XC50 (µM)
API: value field is a number in µM; no unit string.

Ask: Query: XC50; subject: CC(C)c1onc(C[S+]([O-])c2c(Cl)cccc2Cl)c1COc1ccc(/C=C/c2cccc(C(=O)O)c2)c(Cl)c1 (stereo unspecified)
Reply: 0.96

---

- tested.target: Bile acid receptor (Homo sapiens, UniProt Q96RI1)
- Sequence (Q96RI1 whole entry): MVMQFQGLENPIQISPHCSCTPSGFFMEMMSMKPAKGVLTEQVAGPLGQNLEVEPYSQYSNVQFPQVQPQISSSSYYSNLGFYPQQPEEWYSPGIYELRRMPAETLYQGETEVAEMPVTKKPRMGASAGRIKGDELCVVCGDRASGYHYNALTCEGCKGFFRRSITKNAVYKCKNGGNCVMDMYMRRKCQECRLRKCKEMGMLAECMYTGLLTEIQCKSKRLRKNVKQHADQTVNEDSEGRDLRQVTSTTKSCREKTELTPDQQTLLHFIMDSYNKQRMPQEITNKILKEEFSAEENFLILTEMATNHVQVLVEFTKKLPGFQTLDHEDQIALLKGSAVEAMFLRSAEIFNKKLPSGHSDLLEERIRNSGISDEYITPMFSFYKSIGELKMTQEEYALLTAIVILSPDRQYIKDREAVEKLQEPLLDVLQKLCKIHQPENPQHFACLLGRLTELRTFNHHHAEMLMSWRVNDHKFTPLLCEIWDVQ
- procedure.text: Agonist activity at human FXR assessed as SRC1 coactivator peptide recruitment by cell free FRET assay
- Type: functional
pEC50: −log10 of the molar value.
parameter.measured: pEC50

CC(C)c1onc(COc2ccccc2Cl)c1COc1ccc(/C=C/c2cccc(C(=O)O)c2)c(Cl)c1	7.09

[1] CC(C)c1onc(COc2c(Cl)cc(F)cc2Cl)c1COc1ccc(/C=C/c2cccc(C(=O)O)c2)c(Cl)c1
[2] CC(C)c1onc(COc2cccc(Cl)c2)c1COc1ccc(/C=C/c2cccc(C(=O)O)c2)c(Cl)c1
Ask: Field: lower recorded pEC50 (choose 1 or 2 ) Please indicate the selected item by its label.
Reply: 2
(2: 5.70, 1: 6.27)

---

- tested.target: Bile acid receptor (Homo sapiens, UniProt Q96RI1)
- procedure.text: Agonist activity at human FXR transfected in african green monkey CV1 cells by luciferase reporter gene transient transfection assay
- Format: functional, cell-based, CV-1
parameter.measured: EC50 (nM)

Recorded results for 4 molecules are shown here.
CC(C)c1onc(CS(=O)(=O)c2c(Cl)cccc2Cl)c1COc1ccc(/C=C/c2cccc(C(=O)O)c2)c(Cl)c1	390
CC(C)c1onc(CSc2nnnn2C)c1COc1ccc(/C=C/c2cccc(C(=O)O)c2)c(Cl)c1	2100
CC(C)c1onc(-c2c(Cl)cncc2Cl)c1COc1ccc(/C=C/c2cccc(C(=O)O)c2)c(Cl)c1	52
CC(C)c1onc(COc2c(Cl)cc(Cl)cc2Cl)c1COc1ccc(/C=C/c2cccc(C(=O)O)c2)c(Cl)c1	200

[1] CC(C)c1onc(COc2c(F)cc(F)cc2F)c1COc1ccc(/C=C/c2cccc(C(=O)O)c2)c(Cl)c1
[2] CC(C)c1onc(COc2c(F)cccc2F)c1COc1ccc(/C=C/c2cccc(C(=O)O)c2)c(Cl)c1
Ask: Higher EC50: 1 or 2 ? Your answer should be the label of the entry you select.
Reply: 2
(2: 720 nM, 1: 300 nM)
